endpoint label: pIC50
Entry type: numeric. Quantity: pIC50, the -log10 of concentration in molar units.

Entry COc1cc(-c2c3c(OC(F)F)cc(-c4cn(C)nn4)cc3nn2C)cc(OC(F)F)c1C(=O)N1CC(O)(C(F)F)C1 [US20260062387, Example 64] , Serine/threonine-protein kinase SIK2 (Homo sapiens, UniProt Q9H0K1) data, pIC50 value: 8.05

###

Target: Serine/threonine-protein kinase SIK1 (Homo sapiens, UniProt P57059)
Sequence (P57059 whole entry): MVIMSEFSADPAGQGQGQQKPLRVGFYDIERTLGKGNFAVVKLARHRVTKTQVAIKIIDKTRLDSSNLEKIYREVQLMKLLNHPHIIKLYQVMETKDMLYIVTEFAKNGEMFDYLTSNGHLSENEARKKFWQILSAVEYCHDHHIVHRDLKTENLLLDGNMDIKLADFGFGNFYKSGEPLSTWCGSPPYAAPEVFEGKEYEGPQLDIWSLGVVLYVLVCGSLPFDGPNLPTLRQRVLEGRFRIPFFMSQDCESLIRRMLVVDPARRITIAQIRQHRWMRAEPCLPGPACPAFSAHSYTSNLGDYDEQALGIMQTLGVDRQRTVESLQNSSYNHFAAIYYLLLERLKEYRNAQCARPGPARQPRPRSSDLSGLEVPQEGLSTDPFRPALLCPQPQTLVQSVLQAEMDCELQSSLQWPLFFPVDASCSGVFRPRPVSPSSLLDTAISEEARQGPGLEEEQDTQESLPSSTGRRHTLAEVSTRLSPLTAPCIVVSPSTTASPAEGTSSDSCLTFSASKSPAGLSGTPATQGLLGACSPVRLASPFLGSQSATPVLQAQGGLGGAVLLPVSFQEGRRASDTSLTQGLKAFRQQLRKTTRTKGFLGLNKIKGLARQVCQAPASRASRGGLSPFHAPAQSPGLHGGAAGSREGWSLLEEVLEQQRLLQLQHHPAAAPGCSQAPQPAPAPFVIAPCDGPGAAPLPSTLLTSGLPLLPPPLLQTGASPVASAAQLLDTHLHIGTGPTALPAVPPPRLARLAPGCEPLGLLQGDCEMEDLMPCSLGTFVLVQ
endpoint label: IC50
Lab note: write values as number then unit, every time.

Documented IC50 of COc1cc(-c2c3c(C(F)F)cc(-c4cnn(C[C@H](C)O)c4)cc3nn2C)cc(OC(F)F)c1C(=O)N1CC(O)(C(F)(F)F)C1 [US20260062387, Example 72] : 3.9 nM
